Tested on: KURAMOCHI
test details: drug sensitivity score (DSS2) on cancer cell count; higher = more sensitive; extreme values may be limits of the assay
measurement context: co-cultured fibroblast: WI38; 72 h
# maps each entry to its drug sensitivity score
Report as a plain number; the unit DSS is understood.

In: Reported drug sensitivity score for KURAMOCHI, given Cc1ccc(NC(=O)c2ccc(CN3CCN(C)CC3)cc2)cc1Nc1nc(-c2cccnc2)cs1 ?
Out: 1.6

====

System: KURAMOCHI
test details: drug sensitivity score (DSS2) on cancer cell count; higher = more sensitive; extreme values may be limits of the assay
measurement context: co-cultured fibroblast: WI38; 72 h
value kind: drug sensitivity score
Write the quantity with the unit trailing the number.

smiles record: CN1CCN(c2ccc3nc(-c4c(N)c5c(F)cccc5[nH]c4=O)[nH]c3c2)CC1
drug sensitivity score: 0 DSS
--
smiles record: Clc1ccc(Nc2nnc(Cc3ccncc3)c3ccccc23)cc1
drug sensitivity score: 0.7 DSS

In: Consider the compound shown here: COc1ncc(-c2ccc3nccc(-c4ccnnc4)c3c2)cc1NS(=O)(=O)c1ccc(F)cc1F What is its recorded drug sensitivity score?
Out: 17.9 DSS

In: Consider the compound shown here: CCc1cnn2c(NCc3ccc[n+]([O-])c3)cc(N3CCCC[C@H]3CCO)nc12 What is its recorded drug sensitivity score?
Out: 23.9 DSS

====

Tested on: KURAMOCHI
test details: drug sensitivity score (DSS2) on cancer cell count; higher = more sensitive; extreme values may be limits of the assay
measurement context: co-cultured fibroblast: WI38; 72 h
# maps each entry to its drug sensitivity score
Report as a plain number; the unit DSS is understood.

smiles record: CO[C@H]1C[C@@H]2CC[C@@H](C)[C@@](O)(O2)C(=O)C(=O)N2CCCC[C@H]2C(=O)O[C@H]([C@H](C)C[C@@H]2CC[C@@H](OC(=O)C(C)(CO)CO)[C@H](OC)C2)CC(=O)[C@H](C)/C=C(\C)[C@@H](O)[C@@H](OC)C(=O)[C@H](C)C[C@H](C)/C=C/C=C/C=C/1C
tgt: KURAMOCHI
unit of measurement: DSS
drug sensitivity score: 14.2

Okay, now this compound:
In: Consider the compound shown here: Cc1ccc(C(=O)Nc2ccc(Oc3cc4cnn(C)c4cc3-c3cn[nH]c3)c(F)c2)c(=O)n1-c1ccc(F)cc1 What is its recorded drug sensitivity score?
Out: 1.5

====

Test system: KURAMOCHI
test details: drug sensitivity score (DSS2) on cancer cell count; higher = more sensitive; extreme values may be limits of the assay
measurement context: co-cultured fibroblast: WI38; 72 h
# maps each entry to its drug sensitivity score
Report as a plain number; the unit DSS is understood.

molecule: CC(C)C[C@@H](C(=O)N[C@H](C(=O)OC1CCCC1)c1ccccc1)[C@H](O)C(=O)NO
tgt: KURAMOCHI
value kind: drug sensitivity score
recorded measurement: 1.3
--
molecule: O=C(/C=C\n1cnc(-c2cc(C(F)(F)F)cc(C(F)(F)F)c2)n1)NNc1cnccn1 [Selinexor]
tgt: KURAMOCHI
value kind: drug sensitivity score
recorded measurement: 21.8
--
molecule: O=c1[nH]c(C2CCCN2)nc2c1oc1ccc(Cl)cc12 (stereo unspecified)
tgt: KURAMOCHI
value kind: drug sensitivity score
recorded measurement: 5.4
--
molecule: COc1cc2nccc(Oc3ccc(NC(=O)NC4CC4)c(Cl)c3)c2cc1C(N)=O
tgt: KURAMOCHI
value kind: drug sensitivity score
recorded measurement: 0
--
molecule: Cn1cc(CNCC2CCN(c3ncc(C(=O)NO)cn3)CC2)c2ccccc21
tgt: KURAMOCHI
value kind: drug sensitivity score
recorded measurement: 17
--
molecule: CN[C@@H](C)C(=O)N[C@H](C(=O)N1CCC[C@H]1c1nc(C(=O)c2ccc(F)cc2)cs1)C1CCCCC1
tgt: KURAMOCHI
value kind: drug sensitivity score
recorded measurement: 1.9
--
molecule: Cn1cnc2c(F)c(Nc3ccc(Br)cc3Cl)c(C(=O)NOCCO)cc21
tgt: KURAMOCHI
value kind: drug sensitivity score
recorded measurement: 6.4
--
molecule: O=C(NOC[C@H](O)CO)c1ccc(F)c(F)c1Nc1ccc(I)cc1F
tgt: KURAMOCHI
value kind: drug sensitivity score
recorded measurement: 0.8

In: Consider the molecule shown here: CO[C@@H](C(=O)N1Cc2[nH]nc(NC(=O)c3ccc(N4CCN(C)CC4)cc3)c2C1)c1ccccc1 What is its recorded drug sensitivity score?
Out: 20.9

In: Consider the molecule shown here: CC(C)(C)Cn1c(N)nc2ccc(-c3[nH]c(C(C)(C)C)nc3-c3ccc(F)cc3)nc21 What is its recorded drug sensitivity score?
Out: 1.7

In: Consider the molecule shown here: COc1cccc2c1C(=O)c1c(O)c3c(c(O)c1C2=O)C[C@@](O)(C(C)=O)C[C@@H]3O[C@H]1C[C@H](N)[C@H](O)[C@H](C)O1 What is its recorded drug sensitivity score?
Out: 14.6

In: Consider the molecule shown here: FC(F)(F)c1ccc(/C=C/c2nc(COc3ccc(CCCCn4ccnn4)cc3)co2)cc1 What is its recorded drug sensitivity score?
Out: 0

In: Consider the molecule shown here: Cc1c(-c2ccc(N3CCc4cccc(C(=O)Nc5nc6ccccc6s5)c4C3)nc2C(=O)O)cnn1CC12CC3CC(CC(C3)C1)C2 What is its recorded drug sensitivity score?
Out: 8.2

In: Consider the molecule shown here: O=C1CN2Cc3c(ccc(Cl)c3Cl)N=C2N1 [Anagrelide] What is its recorded drug sensitivity score?
Out: 0

In: Consider the molecule shown here: CN1CC[C@@H](NC(=O)Nc2ccc(C#N)cc2)C[C@@H]1c1nc2ccccc2[nH]1 What is its recorded drug sensitivity score?
Out: 1.1

In: Consider the molecule shown here: Cc1cnc(NC(=O)Nc2cc(Br)c(C)cc2OC[C@@H]2CNCCO2)cn1 What is its recorded drug sensitivity score?
Out: 0

In: Consider the molecule shown here: CC1(C)CCC(c2ccc(Cl)cc2)=C(CN2CCN(c3ccc(C(=O)NS(=O)(=O)c4ccc(N[C@H](CCN5CCOCC5)CSc5ccccc5)c(S(=O)(=O)C(F)(F)F)c4)cc3)CC2)C1 What is its recorded drug sensitivity score?
Out: 3.1

In: Consider the molecule shown here: Cn1cncc1[C@@](N)(c1ccc(Cl)cc1)c1ccc2c(c1)c(-c1cccc(Cl)c1)cc(=O)n2C What is its recorded drug sensitivity score?
Out: 18.3

In: Consider the molecule shown here: Nc1nc2cc(-c3ccc4ncc(C(=O)N5CCOCC5)n4c3)ccc2o1 What is its recorded drug sensitivity score?
Out: 0.4

In: Consider the molecule shown here: CN(C)CCOc1ccc(/C(=C(/CCCl)c2ccccc2)c2ccccc2)cc1 What is its recorded drug sensitivity score?
Out: 0.8

In: Consider the molecule shown here: C=CC(=O)Nc1cc2c(Nc3ccc(F)c(Cl)c3)ncnc2cc1OCCCN1CCOCC1 What is its recorded drug sensitivity score?
Out: 9.2

In: Consider the molecule shown here: CC(=O)O[C@H]1C(=O)[C@@]2(C)[C@H]([C@H](OC(=O)c3ccccc3)[C@]3(O)C[C@H](OC(=O)[C@H](O)[C@@H](NC(=O)c4ccccc4)c4ccccc4)C(C)=C1C3(C)C)[C@]1(OC(C)=O)CO[C@@H]1C[C@@H]2O What is its recorded drug sensitivity score?
Out: 24.5

====

Test system: KURAMOCHI
test details: drug sensitivity score (DSS2) on cancer cell count; higher = more sensitive; extreme values may be limits of the assay
measurement context: co-cultured fibroblast: WI38; 72 h
value kind: drug sensitivity score (DSS)
Report as a plain number; the unit DSS is understood.

In: Consider the molecule shown here: COc1cc(C(=O)O)ccc1NC(=O)[C@@H]1N[C@@H](CC(C)(C)C)[C@](C#N)(c2ccc(Cl)cc2F)[C@H]1c1cccc(Cl)c1F What is its recorded drug sensitivity score?
Out: 1.1

In: Consider the molecule shown here: CC(C)(C)NC(=O)[C@H]1CC[C@H]2[C@@H]3CC[C@H]4NC(=O)C=C[C@]4(C)[C@H]3CC[C@]12C [Finasteride] What is its recorded drug sensitivity score?
Out: 0

In: Consider the molecule shown here: CC(C)(C)c1cc(NC(=O)Nc2ccc(Oc3ccnc4[nH]c(=O)cnc34)cc2F)n(-c2ccccc2)n1 What is its recorded drug sensitivity score?
Out: 6.1

In: Consider the molecule shown here: CO[C@H]1CC[C@H](N2C(=O)CNc3ncc(-c4ccc(C(C)(C)O)nc4)nc32)CC1 What is its recorded drug sensitivity score?
Out: 5.7

====

Test system: OVCAR8
test details: drug sensitivity score (DSS2) on cancer cell count; higher = more sensitive; extreme values may be limits of the assay
measurement context: co-cultured fibroblast: WI38; 72 h
value kind: drug sensitivity score

compound: COc1cc(CCc2cc(NC(=O)c3ccc(N4CC(C)NC(C)C4)cc3)n[nH]2)cc(OC)c1 (stereo unspecified) [AZD4547]
drug sensitivity score: 0 DSS

In: Reported drug sensitivity score for OVCAR8, given CO[C@H]1CC[C@H](N2C(=O)CNc3ncc(-c4ccc(C(C)(C)O)nc4)nc32)CC1 [CC-223] ?
Out: 1.6 DSS

In: Reported drug sensitivity score for OVCAR8, given CC#CC(=O)N1CCC[C@H]1c1nc(-c2ccc(C(=O)Nc3ccccn3)cc2)c2c(N)nccn12 [Acalabrutinib] ?
Out: 0 DSS

In: Reported drug sensitivity score for OVCAR8, given N#Cc1ccnc(N2C(=O)CC[C@H]2C(=O)N(c2cncc(F)c2)[C@H](C(=O)NC2CC(F)(F)C2)c2ccccc2Cl)c1 [Ivosidenib] ?
Out: 0.3 DSS

In: Reported drug sensitivity score for OVCAR8, given C[C@H](Nc1ncnc2[nH]cnc12)c1cc2ccc(F)cc2nc1-c1ccccn1 [AMG319] ?
Out: 5.8 DSS

In: Reported drug sensitivity score for OVCAR8, given CO[C@H]1C[C@@H]2CC[C@@H](C)[C@@](O)(O2)C(=O)C(=O)N2CCCC[C@H]2C(=O)O[C@H]([C@H](C)C[C@@H]2CC[C@@H](O)[C@H](OC)C2)CC(=O)[C@H](C)/C=C(\C)[C@@H](O)[C@@H](OC)C(=O)[C@H](C)C[C@H](C)/C=C/C=C/C=C/1C [Sirolimus] ?
Out: 0 DSS
